target.of.assay: GlcNAc(b1-4)[GlcNAc(b1-6)]GalNAc
assay.procedure: glycan array binding signal (z-score within array); higher = stronger binding
experimental.setup: glycan notation: IUPAC condensed, linker removed
This excerpt belongs to a sample that is enriched for the strongest signals.

binder | glycan array binding signal (z-score)
DC SIGN CRD (Homo sapiens), Q9NNX6 (protein) QPCPWEWTFFQGNCYFMSNSQRNWHDSITACKEVGAQLVVIKSAEEQNFLQLQSSRSNRFTWMGLSDLNQEGTWQWVDGSPLLPSFKQYWNRGEPNNVGEEDCAEFSGNGWNDDKCNLAKFWICKKSAWSHPQFEK | -0.371
SBD-G4S3-Fc (protein) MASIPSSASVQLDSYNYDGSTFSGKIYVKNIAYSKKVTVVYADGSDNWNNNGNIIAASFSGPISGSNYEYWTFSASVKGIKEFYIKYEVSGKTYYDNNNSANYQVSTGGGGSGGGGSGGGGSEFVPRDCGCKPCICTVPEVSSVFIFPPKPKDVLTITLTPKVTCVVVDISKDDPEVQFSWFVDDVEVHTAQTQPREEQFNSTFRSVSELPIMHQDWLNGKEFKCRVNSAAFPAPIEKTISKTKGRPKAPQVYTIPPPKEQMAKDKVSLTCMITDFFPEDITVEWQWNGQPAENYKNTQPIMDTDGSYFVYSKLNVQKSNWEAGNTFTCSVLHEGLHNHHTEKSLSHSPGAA | 0.069
CrataBL (Crataeva tapia), C0HJA4 (protein) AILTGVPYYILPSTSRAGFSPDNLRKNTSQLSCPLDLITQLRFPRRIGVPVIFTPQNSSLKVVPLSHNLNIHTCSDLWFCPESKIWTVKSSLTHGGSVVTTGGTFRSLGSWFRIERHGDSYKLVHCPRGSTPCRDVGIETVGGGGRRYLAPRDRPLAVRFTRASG | -0.434
MAL (Maackia amurensis) (protein) SDELSFTINNFMPNQGDLLFQGVATVSPTGVLQLTSEENGQPLEYSVGRVLYTAPVRIWDSTTGAVASFSTSFTFVVKAARGASDGLAFFLAPPDSQIPSGSVSKYLGLFNNSNSDSSNQIVAVEFDTYFGHSYDPWDPNYRHIGIDVNGIESIKTVQWDWINGGVAFATITYLAPNKTLIASLVYPSNQTSFIVAASVDLKEILPEWVRVGFSAATGAPKAVETHDVRSWSFTSTLEANSPADVDN | -0.221
CLL-1 (Homo sapiens) (protein) MWIDFFTYSSMSEEVTYADLQFQNSSEMEKIPEIGKFGEKAPPAPSHVWRPAALFLTLLCLLLLIGLGVLASMFHVTLKIEMKKMNKLQNISEELQRNISLQLMSNMNISNKIRNLSTTLQTIATKLCRELYSKEQEHKCKPCPRRWIWHKDSCYFLSDDVQTWQESKMACAAQNASLLKINNKNALEFIKSQSRSYDYWLGLSPEEDSTRGMRVDNIINSSAWVIRNAPDLNNMYCGYINRLYVQYYHCTYKKRMICEKMANPVQLGSTYFREA | -0.247
